Every entry's value here was drawn from ChEMBL document CHEMBL1138786.

Test: Ratio of cytotoxicity to anti BVDV activity of the compound
Set-up: species or system Bos taurus
Settings: cattle; read-out: CC50/EC50
Rule: t for selectivity ratio not less than 1, f for anything less.

Task item: Can O=c1ccn([C@@H]2O[C@H](CO)C(OC3Sc4ccccc4S3)[C@@H]2O)c(=O)[nH]1 (stereo not given in full) be said to have selectivity ratio at or above 1?
Reply: t

New cases:
Task item: Can Cc1cn([C@H]2C[C@H](OC3Sc4ccccc4S3)[C@@H](C)O2)c(=O)[nH]c1=O be said to have selectivity ratio at or above 1?
Reply: f

Task item: Consider next the compound Nc1ncnc2c1ncn2[C@H]1C[C@H](OC2Sc3ccccc3S2)[C@@H](CO)O1 in the same way.
Reply: t

Task item: Consider next the compound Cc1cn([C@H]2C[C@H](OC3Sc4ccccc4S3)[C@@H](CO)O2)c(=O)[nH]c1=O in the same way.
Reply: t

###

Assay: Anti BVDV activity in MDBK (Madin-darby bovine kidney) cells (Ribavirin EC50 0.61 and CC50 90.2)
Assay type: functional, Bos taurus
reportedMetric: EC50

Task item: Item COC(=O)Nc1ccn([C@@H]2O[C@H](CO)C(O)[C@@H]2OC2Sc3ccccc3S2)c(=O)n1 (stereo partly specified) has what recorded EC50?
Reply: 50.3 µM

###

Assay: Anti BVDV activity in MDBK (Madin-darby bovine kidney) cells
Assay type: functional, Bos taurus
reportedMetric: pEC50
In simple prose, pEC50 is minus the logarithm base ten of a concentration in moles per litre.

Task item: Item Nc1ncnc2c1ncn2[C@@H]1O[C@H](CO)C(O)[C@@H]1OC1Sc2ccccc2S1 (some centres not stated) has what recorded pEC50?
Reply: 4.41

Task item: Consider next the compound CSc1ccccc1SCO[C@H]1C[C@H](n2cc(C)c(=O)[nH]c2=O)O[C@@H]1CO in the same way.
Reply: 4.05

Task item: Consider next the compound Cc1cn([C@H]2C[C@H](OC3Sc4ccccc4S3)[C@@H](C)O2)c(=O)[nH]c1=O in the same way.
Reply: 4.06

New cases:
Task item: Item O=c1ccn([C@@H]2O[C@H](CO)C(OC3Sc4ccccc4S3)[C@@H]2O)c(=O)[nH]1 (some centres not stated) has what recorded pEC50?
Reply: 4.30

Task item: Consider next the compound Nc1ccn([C@@H]2O[C@H](CO)C(O)[C@@H]2OC2Sc3ccccc3S2)c(=O)n1 (some centres not stated) in the same way.
Reply: 4.55

###

Entries annotated with measured CC50
Assay: Cytotoxicity in MDBK (Madin-darby bovine kidney) cells
Type: cell-based, Bos taurus
Conditions: cattle

Study these solved cases before continuing.
Task item: Item O=c1ccn([C@@H]2O[C@H](CO)C(O)[C@@H]2OC2Sc3ccccc3S2)c(=O)[nH]1 (some centres not stated) has what recorded CC50?
Reply: 67.3 µM

Task item: Consider next the compound Nc1nc(O)c2ncn([C@H]3C[C@H](OC4Sc5ccccc5S4)[C@@H](CO)O3)c2n1 in the same way.
Reply: > 100 µM

Task item: Consider next the compound Cc1cn([C@H]2C[C@H](OC3Sc4ccccc4S3)[C@@H](CO)O2)c(=O)[nH]c1=O in the same way.
Reply: 72.4 µM

Task item: Consider next the compound Nc1ccn([C@H]2C[C@H](OC3Sc4ccccc4S3)[C@@H](CO)O2)c(=O)n1 in the same way.
Reply: 69.7 µM

Task item: Consider next the compound Nc1ccn([C@@H]2O[C@H](CO)C(O)[C@@H]2OC2Sc3ccccc3S2)c(=O)n1 (some centres not stated) in the same way.
Reply: 70.4 µM

Let us move to another entry and its CC50.
Task item: Item CSc1ccccc1SCO[C@H]1C[C@H](n2ccc(N)nc2=O)O[C@@H]1CO has what recorded CC50?
Reply: > 100 µM

###

Entries annotated with measured selectivity ratio
Assay: Ratio of cytotoxicity to anti BVDV activity of the compound
Parameters: species or system Bos taurus
Details: cattle; read-out: CC50/EC50
The answer should be written as a number, with no unit following it.

Task item: Item COC(=O)Nc1ccn([C@@H]2O[C@H](CO)C(O)[C@@H]2OC2Sc3ccccc3S2)c(=O)n1 (stereo not given in full) has what recorded selectivity ratio?
Reply: 1.19

Task item: Consider next the compound Nc1ccn([C@@H]2O[C@H](CO)C(O)[C@@H]2OC2Sc3ccccc3S2)c(=O)n1 (stereo not given in full) in the same way.
Reply: 2.47

Task item: Consider next the compound Nc1ncnc2c1ncn2[C@@H]1O[C@H](CO)C(O)[C@@H]1OC1Sc2ccccc2S1 (stereo not given in full) in the same way.
Reply: 1.89

Task item: Consider next the compound Nc1nc(O)c2ncn([C@@H]3O[C@H](CO)C(O)[C@@H]3OC3Sc4ccccc4S3)c2n1 (stereo not given in full) in the same way.
Reply: 5.09

New cases:
Task item: Item OC[C@H]1O[C@@H](n2cnc3c(O)ncnc32)[C@@H](OC2Sc3ccccc3S2)C1O (stereo not given in full) has what recorded selectivity ratio?
Reply: 3.21

###

Test: Cytotoxicity in MDBK (Madin-darby bovine kidney) cells (Ribavirin EC50 0.61 and CC50 90.2)
Type: cell-based, Bos taurus
Settings: cattle
reportedMetric: CC50 (µM)
Quick reminder: number only, in µM, skip the unit.

Task item: Item COC(=O)Nc1ccn([C@@H]2O[C@H](CO)C(O)[C@@H]2OC2Sc3ccccc3S2)c(=O)n1 (stereo partly specified) has what recorded CC50?
Reply: 60.1

###

Assay: Ratio of cytotoxicity to anti BVDV activity of the compound
Design: species or system Bos taurus
Conditions: cattle; read-out: CC50/EC50
Entries annotated with measured selectivity ratio

Study these solved cases before continuing.
Task item: Item Nc1nc(O)c2ncn([C@H]3C[C@H](OC4Sc5ccccc5S4)[C@@H](CO)O3)c2n1 has what recorded selectivity ratio?
Reply: > 1.3

Task item: Consider next the compound CSc1ccccc1SCO[C@H]1C[C@H](n2cc(C)c(=O)[nH]c2=O)O[C@@H]1CO in the same way.
Reply: > 1.1

Let us move to another entry and its selectivity ratio.
Task item: Item O=c1ccn([C@@H]2O[C@H](CO)C(O)[C@@H]2OC2Sc3ccccc3S2)c(=O)[nH]1 (stereo partly drawn) has what recorded selectivity ratio?
Reply: 1.19

###

Assay: Anti BVDV activity in MDBK (Madin-darby bovine kidney) cells
Type: functional, Bos taurus
reportedMetric: EC50

Study these solved cases before continuing.
Task item: Item CSc1ccccc1SCO[C@H]1C[C@H](n2ccc(N)nc2=O)O[C@@H]1CO has what recorded EC50?
Reply: > 100 µM

Task item: Consider next the compound CSc1ccccc1SCO[C@H]1C[C@H](n2cnc3c(N)ncnc32)O[C@@H]1CO in the same way.
Reply: > 100 µM

Let us move to another entry and its EC50.
Task item: Item CSc1ccccc1SCO[C@H]1C[C@H](n2cnc3c(O)nc(N)nc32)O[C@@H]1CO has what recorded EC50?
Reply: > 100 µM

###

Entries annotated with measured CC50
Experiment: Cytotoxicity in MDBK (Madin-darby bovine kidney) cells
Type: cell-based, Bos taurus
Conditions: cattle
Quick reminder: number only, in µM, skip the unit.

Task item: Item Cc1cn([C@H]2C[C@H](OC3Sc4ccccc4S3)[C@@H](C)O2)c(=O)[nH]c1=O has what recorded CC50?
Reply: 81.3

Task item: Consider next the compound O=c1ccn([C@@H]2O[C@H](CO)C(OC3Sc4ccccc4S3)[C@@H]2O)c(=O)[nH]1 (stereo partly specified) in the same way.
Reply: 73.9

Task item: Consider next the compound Nc1ncnc2c1ncn2[C@@H]1O[C@H](CO)C(O)[C@@H]1OC1Sc2ccccc2S1 (stereo partly specified) in the same way.
Reply: 74.3

Task item: Consider next the compound O=c1ccn([C@@H]2O[C@H](CO)C(OC3Sc4ccccc4S3)[C@@H]2OC2Sc3ccccc3S2)c(=O)[nH]1 (stereo partly specified) in the same way.
Reply: 48

Task item: Consider next the compound Nc1nc(O)c2ncn([C@@H]3O[C@H](CO)C(O)[C@@H]3OC3Sc4ccccc4S3)c2n1 (stereo partly specified) in the same way.
Reply: 73.2

Let us move to another entry and its CC50.
Task item: Item Nc1ncnc2c1ncn2[C@H]1C[C@H](OC2Sc3ccccc3S2)[C@@H](CO)O1 has what recorded CC50?
Reply: 68.4
